assay: label from the status in PepcDB records
PROPERTY: protein production

Below: 5 sequences and their reported protein production.
POLYMER SEQUENCE	protein production
MSSDAIETIETYLRPGAWVEDAAGPLYVRLRKRIEQGIDSGLLAKSAPLPAEREIASLTGLSRVTVRRAMQELVDRGIIVQRQGSGSFVADAAPRVEQSLSHLTSFTEDMERRGLNVTSEWLTRGVFIPSPEEVMALALSSGEQVARVARLRRAEGRPMAIERASLPTDILPDPELVSSSLYAVLERDGNRPVRALQRISAVNLGAEDAALLGVEPGTAGLRIIRTSYLPNRRVIEYTRSLYRADAYDFVAELRLGNS	failed
METDPDYSMVLLTENFPPYNMAINGKNFAQEDNIDGIAVDIVREMFKRAGIKYSLTLRFPWDRIYKLALEKPGYGVFVTARLAEREDKFKWVGPIGPDDWVLLAKGDSPITLGSLDEAKKYRIGAYKGDAIAEFLGKNGFEADLEHHHHHH	failed
MLVSCAMRLHSGVFPDYAEKLPQEEKMEKEDSFPQRVWQIVAAIPEGYVTTYGDVAKLAGSPRAARQVGGVLKRLPEGSTLPWHRVVNRHGTISLTGPDLQRQRQALLAEGVMVSGSGQIDLQRYRWNY	failed
MSANVQEAANAAIEPASFVKVPMPEPPSSLQQLINDWQLIKHREGGYFKETDRSPYTMEVEKPVNGGSGNTEMVTRNQSTLIYYLLTPDSPIGKFHKNINRIIHILQRGKGQYVLVYPDGQVKSFKVGFDYKNGEVSQWVVPGGVFKASFLLPNEEFDNGFLISEVVVPGFDFEDHTFLKGEDELKHLVGPEKAAELAFLA	not failed
MMSFSQIINDFIQSFSSINLGGNFKEIVTNPLTILTLIGVLIILVLLIKAKDIKFDAKMLTTIGIALALTAVLNMLKIYKFPQGGGITLGSMIPIILIAYAYGPLVGMLTGFLFGIISLFIDPYILHPVQVLFDYPIPYMALGVAGFFKNHRISGAVVAIFLKFLAHFISGVVFFGSFAPEGMSPILYSFLVNGSLIGADGLICVVLLGILPVNRLIKAISSKSVTSKYAS	failed

INPUT: # return recorded protein production for entry MNLMRFLRRPISLRQRLILTIGAILLVFELISVFWLWHESTEQIQLFEQALRDNRNNDRHIMREIREAVASLIVPGVFMVSLTLFICYQAVRRITRPLAELQKELEARTADNLTPIAIHSATLEIEAVVSALNDLVSRLTSTLDNERLFTADVAHELRTPLAGVRLHLELLAKTHHIDVAPLVARLDQMMESVSQLLQLARAGQSFSSGNYQHVKLLEDVILPSYDELSTMLDQRQQTLLLPESAADITVQGDATLLRMLLRNLVENAHRYSPQGSNIMIKLQEDGGAVMAVEDEGPGIDESKCGELSKAFVRMDSRYGGIGLGLSIVSRITQLHHGQFFLQNRQETSGTRAWVRLKKDQNVANQI
OUTPUT: failed

INPUT: Look up protein production of MDNPKGIDGFTNLKEKDIATNENKLLRTITADKMIPAFLITPISSQIAGKVIAQVESDIFAHMGKAVLIPKGSKVIGYYSNNNKMGEYRLDIVWSRIITPHGINIMLTNAKGADIKGYNGLVGELIERNFQRYGVPLLLSTLTNGLLIGITSALNNRGNKEGATNFFGDYLLMQLMRQSGMGINQVVNQILRDKSKIAPIVVIREGSRVFISPNTDIFFPIPRENEVIAEFLK and report it.
OUTPUT: failed

INPUT: State its protein production for this sequence: KITRLTTYRLPPRWMFLKVETDEGVTGWGEPVIEGRARTVEAAVHELSDYLIGQDPSRINDLWQTMYRAGFYRGGPILMSAIAGIDQALWDIKGKVLGVPVYELLGGLVRDKMRTYSWVGGDRPADVIAGMKALQAGGFDHFKLNGCEEMGIIDTSRAVDAAVARVAEIRSAFGNTVEFGLDFHGRVSAPMAKVLIKELEPYRPLFIEEPVLAEQAETYARLAAHTHLPIAAGERMFSRFDFKRVLEAGGVSILQPDLSHAGGITECVKIAAMAEAYDVALAPHCPLGPIALAACLHVDFVSWNATLQEQSMGIHYNKGAELLDYVRNKADFALEGGYIRPPRLPGLGVDIDEALVIERSKEAPDWRNPVWRHADGSVAEW
OUTPUT: not failed

INPUT: Assign protein production to the following record: METPNSTGGTPPTMRVSVVLCTHTMERYDDCRAAAESVLAQTYDDVELVLVSDGNRDVYKQYQSDFGNRDDVLTHCNDANVGLLESRNNGAEVATGDVVAFIDDDAIADEEWVAALVDAYEQQDALAVGGRMTPAWVAGKPSFLPAEFYWLIGVTHRGFGPNGDPDEPGVVRNTFGSNISFDRDVFLELGGFDDDIGGRQGEKNLQGGETELCARLRTEYDEGVYYTPEALVAHKIFDYRTDPGWLLDRAFWQGYSKRGMEVFVPESTGEESDFLSDLLFRFAPERIWGLVRAPSVAGVLQFVFLFALTAFVGFGYLYGMTVWG
OUTPUT: failed

INPUT: Find the measured protein production of MGRGRKHTDAAAEQRELAIKANIVDEPFSVSAIDRSIRKAEWVKTETDQILSGRCPETDGTWLGISTRGRVAFLVEAGTINRDRFNGAESRTLEFLESNESPEDFAKSSAADYIRNKNTAAFHLIVADIASNSMLYISKPRFSDYGIVYTEPVGPGVHTLSSAGLDSDVGYRDLRMRHSFCEMINRERLPPIRDIAEIMYDPVKAYESVLLSSIFFVDMKIGYEHYGTRITTALVVKRTKEVLFFERYREIFNDDWDDHDFAFTII and report it.
OUTPUT: failed

INPUT: Note down protein production recorded for MMNNMDSIINYIYEGDYFIVTSHISPDGDNIGSTLSMYYTLKNLGKNVYYVLDDEAPLNLRFLVEGVKIYKSNEFNMKNYSLIALDCGDKMRICVSDEIKNNASKLICIDHHASNDSYGDLNYVDIDASSTCELVYNLLVRFQQIKDINIINEDIATCLYTGLVTDTGNFSYSNVHASSFEMAKNLLVLGAQKNTIIQNIYQSN
OUTPUT: failed
